Ref: the supplement of paper PMC12636033

System: 2Sb-muMax20 (muMax20 with two 1,3-bis(methyl)benzene Cys staples, A13C/A17C and Q88C/A92C, C-terminal Lys)
Assay: PBM 8-mer E-score (E-score (rank enrichment, -0.5 to 0.5)); higher = stronger preferential binding
Whole data set: some 33,000 sequences, median “E-score (rank enrichment, -0.5 to 0.5)” near -0.0028, cut for the highest 2% near 0.23. The list comes from a sample in which the highest values are over-represented; it also holds close analogues and randomly drawn sequences.
Given measured PBM 8-mer E-score, output Satisfied if it is greater than or equal to 0.007 and Not satisfied if not.

hey, is PBM 8-mer E-score for this one >= 0.007? CCAGTGGC
Not satisfied

Threshold query (PBM 8-mer E-score >= 0.007) on CCTACAAG
Not satisfied

Kindly determine if PBM 8-mer E-score recorded for GCGGGGGA is above or exactly 0.007.
Satisfied

Confirm if PBM 8-mer E-score reported for the sequence ACACGAGA is 0.007 or above.
Not satisfied

Is the recorded value of PBM 8-mer E-score equal to or greater than 0.007 for this sequence? GCTTCTCC
Satisfied

Answer whether PBM 8-mer E-score of AACTTGGG is greater than or equal to 0.007.
Satisfied

Please tell me: is the sequence AAAGTTTC at or over 0.007 in terms of PBM 8-mer E-score?
Not satisfied

Reported PBM 8-mer E-score reaches at least 0.007 for TAGCTTCA ?
Satisfied

In plain terms: is recorded PBM 8-mer E-score at least 0.007 for CCAGGGGG ?
Not satisfied

API: above_or_equal(metric=PBM 8-mer E-score, cutoff=0.007) for item CGGCTGAG
Not satisfied

Determine whether measured PBM 8-mer E-score meets or exceeds 0.007 for GAAGTTTA
Not satisfied

Hello, I need to know if GAGGGTCA has measured PBM 8-mer E-score not below 0.007. Thanks!
Not satisfied

Test whether the sequence CAGAGAGA records PBM 8-mer E-score of 0.007 or higher.
Not satisfied

Given the entry AGTGGGCC , answer whether its PBM 8-mer E-score meets or surpasses 0.007.
Not satisfied

Please tell me: is the sequence AGTGGGGC at or over 0.007 in terms of PBM 8-mer E-score?
Satisfied

Is reported PBM 8-mer E-score greater than or equal to 0.007 here: AATTTGGT
Satisfied

Quick check, PBM 8-mer E-score >= 0.007? AGACGTGC
Not satisfied

Say whether AGTGGGTG shows PBM 8-mer E-score of 0.007 or more.
Satisfied

###

Tested on: 2Sb-muMax20 (muMax20 with two 1,3-bis(methyl)benzene Cys staples, A13C/A17C and Q88C/A92C, C-terminal Lys)
Experiment: PBM 8-mer E-score (E-score (rank enrichment, -0.5 to 0.5)); higher = stronger preferential binding
Over roughly 33,000 sequences, “E-score (rank enrichment, -0.5 to 0.5)” has its median near -0.0028; the highest 2% begin near 0.23. What follows is part of a selection rich in the highest values, with near analogues and random picks from the rest.
experimental-endpoint: PBM 8-mer E-score
Lab note: record the figure alone, no unit after it.

In one line, give reported PBM 8-mer E-score of the entry AAACGATA .
0.0414

Return reported PBM 8-mer E-score. Input sequence: TCGCCCAA
-0.0719

Check the records and state PBM 8-mer E-score for TGAGACAA
0.109

Please look at this sequence and report its PBM 8-mer E-score: GGTATCTA
0.0221

Please look at this sequence and report its PBM 8-mer E-score: CATCCATG
-0.0304

Give PBM 8-mer E-score for CACACCTC
0.11

Determine its reported PBM 8-mer E-score: ATTGCTAA
-0.034

Return value of PBM 8-mer E-score for input GTCCATTA , no commentary.
0.107

Name the recorded PBM 8-mer E-score of the item AGGGGCAC in your answer.
-0.0355

Specify measured PBM 8-mer E-score for GGTATAGA .
0.0611

// fetch PBM 8-mer E-score given entry GTGGGATA
0.274

Look up PBM 8-mer E-score of GGCCAAAC and report it.
-0.0918

Provide PBM 8-mer E-score value for the following sequence: GCGTACCA
-0.0976

Recall and state the measured PBM 8-mer E-score for CCCGAGAG .
-0.255

Identify measured PBM 8-mer E-score corresponding to CATTGCCA
-0.0459

###

Test system: 2Sb-muMax20 (muMax20 with two 1,3-bis(methyl)benzene Cys staples, A13C/A17C and Q88C/A92C, C-terminal Lys)
Assay: PBM 8-mer E-score (E-score (rank enrichment, -0.5 to 0.5)); higher = stronger preferential binding
The full ranking holds about 33,000 sequences; the median of “E-score (rank enrichment, -0.5 to 0.5)” is about -0.0028, and the highest 2% start at about 0.23. The full list was thinned out, with the highest values kept by preference.
Everything with PBM 8-mer E-score lower than 0.06 is Condition not met; everything else, including exactly 0.06, is Condition met.

Confirm if PBM 8-mer E-score reported for the sequence ATTGCTAG is 0.06 or above.
Condition met

Entry AAACTTGA : is its PBM 8-mer E-score no less than 0.06?
Condition met

In plain terms: is recorded PBM 8-mer E-score at least 0.06 for CCCATAAG ?
Condition met

Threshold query (PBM 8-mer E-score >= 0.06) on CCAACGAA
Condition not met

Please indicate if the recorded PBM 8-mer E-score for CATGCATA meets or exceeds 0.06.
Condition met

Could you tell me if the measured PBM 8-mer E-score of GGACGTGA reaches 0.06 or more?
Condition not met

Answer whether PBM 8-mer E-score of CATGCAAC is greater than or equal to 0.06.
Condition met

Could you please find out whether ACATGGGG has PBM 8-mer E-score that meets 0.06 or exceeds it?
Condition met

Does the sequence CAGGATAG have recorded PBM 8-mer E-score that is 0.06 or more?
Condition not met

Identify whether the reported PBM 8-mer E-score of the following sequence is 0.06 or greater: ACATATGC
Condition not met

Exam item: decide whether the reported PBM 8-mer E-score for ACCGGCTA is at least 0.06.
Condition not met

PBM 8-mer E-score >= 0.06 for CCCGCCCG ?
Condition met

Form field: PBM 8-mer E-score at least 0.06? Entry: CTCCCCAG
Condition met

Determine whether measured PBM 8-mer E-score meets or exceeds 0.06 for GGACACGA
Condition not met

Does PBM 8-mer E-score meet or surpass 0.06 for CCCCGTCA ?
Condition met

Confirm if PBM 8-mer E-score reported for the sequence GCACGTAC is 0.06 or above.
Condition met

Can GCCGCCCA be said to have PBM 8-mer E-score at or above 0.06?
Condition not met

Is PBM 8-mer E-score for GAACTAGA at or above 0.06?
Condition met

Check if PBM 8-mer E-score >= 0.06 (inclusive). Item: CGCAGACG
Condition not met

I'd appreciate it if you could say whether ATCAGCCG has PBM 8-mer E-score at least equal to 0.06.
Condition not met

Determine whether measured PBM 8-mer E-score meets or exceeds 0.06 for AACCTTGT
Condition not met

Is PBM 8-mer E-score at least 0.06? Consider CGGTCGGA
Condition not met

Check this sequence for PBM 8-mer E-score at or above 0.06: CCATGGGG
Condition not met

Does the sequence ATCCCCAT have recorded PBM 8-mer E-score that is 0.06 or more?
Condition met

Does the sequence GCACGTGC have recorded PBM 8-mer E-score that is 0.06 or more?
Condition met

Hi team, for AAAGAGGG , is the recorded PBM 8-mer E-score at or above 0.06?
Condition not met

Reported PBM 8-mer E-score reaches at least 0.06 for AGGGGCCA ?
Condition not met

Hi, just wondering whether GGACACAA shows PBM 8-mer E-score of 0.06 or higher.
Condition met

API: above_or_equal(metric=PBM 8-mer E-score, cutoff=0.06) for item ATTGTGTC
Condition met

Answer whether PBM 8-mer E-score of ATCGGCTG is greater than or equal to 0.06.
Condition not met

Can ACATGGGA be said to have PBM 8-mer E-score at or above 0.06?
Condition met

Quick check, PBM 8-mer E-score >= 0.06? AATGCGTA
Condition met

Dear colleague, could you confirm whether CAACACAA has PBM 8-mer E-score at or above 0.06?
Condition not met

# check: PBM 8-mer E-score of CCCGCCCA is greater than or equal to 0.06
Condition met

Hello, I need to know if CGACACAA has measured PBM 8-mer E-score not below 0.06. Thanks!
Condition not met

State whether the measured PBM 8-mer E-score reaches 0.06, counting equality as reaching it, for ATCAGCCC
Condition met

// inclusive: PBM 8-mer E-score at least 0.06? input: ACCGCCAC
Condition not met

Threshold query (PBM 8-mer E-score >= 0.06) on GATGCGTA
Condition met

Hello, I need to know if ATAGGGAA has measured PBM 8-mer E-score not below 0.06. Thanks!
Condition met

API: above_or_equal(metric=PBM 8-mer E-score, cutoff=0.06) for item ATCCCCCA
Condition not met

Determine whether measured PBM 8-mer E-score meets or exceeds 0.06 for AATGCAAC
Condition met

Textbook exercise: given the entry ACAGTACC , state whether its PBM 8-mer E-score is greater than or equal to 0.06.
Condition not met

Check the entry ACGCGCGG : does PBM 8-mer E-score equal or exceed 0.06?
Condition met

Kindly determine if PBM 8-mer E-score recorded for GCGCGCGC is above or exactly 0.06.
Condition met

Does the reported PBM 8-mer E-score for CCGCGCGC fall at or above the 0.06 mark?
Condition not met

Has TAACGATA a recorded PBM 8-mer E-score greater than or equal to 0.06?
Condition met

Is PBM 8-mer E-score for ACGCGCGT at or above 0.06?
Condition met

Reported PBM 8-mer E-score at or above 0.06? AGACACAA
Condition not met

Could you please find out whether GGACACAC has PBM 8-mer E-score that meets 0.06 or exceeds it?
Condition not met

Is PBM 8-mer E-score at least 0.06? Consider ACTGGCAC
Condition not met

Entry ATCCCCAC : is its PBM 8-mer E-score no less than 0.06?
Condition met

Decide: PBM 8-mer E-score of CCCATAAC >= 0.06?
Condition met

Check this sequence for PBM 8-mer E-score at or above 0.06: AATGCATT
Condition met

Please indicate if the recorded PBM 8-mer E-score for GCACGTCC meets or exceeds 0.06.
Condition not met

// inclusive: PBM 8-mer E-score at least 0.06? input: ACCGCCCC
Condition met

Decide: PBM 8-mer E-score of GCACACAA >= 0.06?
Condition met

In plain terms: is recorded PBM 8-mer E-score at least 0.06 for CAACGATA ?
Condition not met

Check the entry CCATATGC : does PBM 8-mer E-score equal or exceed 0.06?
Condition met

# bool: PBM 8-mer E-score of ACCCAAGC >= 0.06
Condition not met

Hello, I need to know if CCACCTTC has measured PBM 8-mer E-score not below 0.06. Thanks!
Condition met

Hello, I need to know if GCATATGA has measured PBM 8-mer E-score not below 0.06. Thanks!
Condition met

Given the entry AAGGGGCG , answer whether its PBM 8-mer E-score meets or surpasses 0.06.
Condition not met

Decide: PBM 8-mer E-score of GGATGGCA >= 0.06?
Condition met

Decide: is the reported value of PBM 8-mer E-score for ATGGAAGG equal to or greater than 0.06?
Condition not met

Please tell me: is the sequence CTCCCCCA at or over 0.06 in terms of PBM 8-mer E-score?
Condition not met

Exam item: decide whether the reported PBM 8-mer E-score for AAACTTGC is at least 0.06.
Condition met

Given the entry TACCGAGA , answer whether its PBM 8-mer E-score meets or surpasses 0.06.
Condition not met

Please tell me: is the sequence TCCTAAGA at or over 0.06 in terms of PBM 8-mer E-score?
Condition not met

// inclusive: PBM 8-mer E-score at least 0.06? input: AAACTAGA
Condition met

Confirm if PBM 8-mer E-score reported for the sequence ACCGTGAG is 0.06 or above.
Condition not met

Evaluate CAGGGGCA : PBM 8-mer E-score at minimum 0.06?
Condition not met
